FYI, the data here is from ChEMBL document CHEMBL1201862.

GI50: recorded values
# System: SK-OV-3
# assay summary: NCI tumour cell line growth inhibition, 48 h
Activity calls are given as the source filed them. No stated cut-off is given here; in the data, active = GI50 up to about 1.1 µM and inactive = higher. Where a SMILES comes first, the peptide text is derived from it. [ ]: non-standard residue; d: D form. The star is where a group is joined. ξ: configuration not given here. X38 = O=C(OCc1ccccc1)[C@@H]1CCC[C@H]1N*; Fmoc = O=C(OCC1c2ccccc2-c2ccccc21)*; ξW = NC(Cc1c[nH]c2ccccc12)C(=O)O; ξF = NC(Cc1ccccc1)C(=O)O; Boc = CC(C)(C)OC(=O)*; ξK = NCCCCC(N)C(=O)O; ξT = CC(O)C(N)C(=O)O; tBu = CC(C)(C)*

O=C(NCCCl)SCCO ... > 100 µM (inactive)
Clc1ccc(C2NN=C3c4ccccc4OCC32)cc1 (stereo not drawn) ... 5.82 µM (inactive)
CC(OC(C)(C)C)C(NC(=O)C(CCCCNC(=O)OC(C)(C)C)NC(=O)C(Cc1c[nH]c2ccccc12)NC(=O)C(Cc1ccccc1)NC(=O)OCC1c2ccccc2-c2ccccc21)C(=O)NC(Cc1ccccc1)C(=O)N[C@@H]1CCC[C@H]1C(=O)OCc1ccccc1 (stereo partly drawn) (Fmoc-[ξF][ξW][ξK](Boc)[ξT](tBu)[ξF]-X38) ... > 100 µM (inactive)
Sc1ncnc2c1ncn2C1CCCO1 (stereo not drawn) ... 35.8 µM (inactive)
CCOC(=O)Cc1nc2nn(Cc3ccccc3)cc2c(=O)[nH]1 ... > 100 µM (inactive)
C=CCn1c(=O)c2ccccc2[n+]2c(-c3cccc([N+](=O)[O-])c3)csc12 ... 68.1 µM (inactive)
COc1ccc(/C=C2\N/C(=N\N=C/C(O)C(O)C(O)C(O)CO)NC2=O)cc1 (stereo not drawn) ... 24.9 µM (inactive)

Could you now consider this next compound?
Query: Kindly indicate its recorded GI50. Item: CCC(=O)O[C@H]1CC[C@H]2[C@@H]3CCC4=C/C(=N/OC(=O)c5cccc6cc7ccccc7nc56)CC[C@]4(C)[C@H]3CC[C@]12C
Result: > 100 µM (inactive)
